# Test system: NIH3T3
# methodNotes: Cytotoxic Profiling of Annotated Libraries Using Quantitative High-Throughput Screening (AID 1296008); further: nearly all actives have a fitted effect of over 60% in size; further: potency means the concentration at half of the fitted maximal effect
# studyConditions: Five cell lines viability, CellTiter-Glo ATP luminescence, 48-72 h
Results filed as inconclusive are left out. Active and inactive are the calls of the source. The call rests on the fitted dose curve; in most records, active means well fitted inhibition curve with a large enough effect; inconclusive means small, poorly fitted or top-dose-only effect; inactive means flat fitted curve, though single readings scatter.
reportedProperty: Potency

1. COc1cc(O)cc(OC2OC(CO)C(O)C(O)C2O)c1 (stereo unspecified)	inactive
2. C=CC(=O)N1CC(N2CCN(C(=O)CNc3cc(C4CC4)c(Cl)cc3O)CC2)C1	inactive
3. Cc1cc(NC(=O)NCCN2CCC(O)(Cc3ccccc3)CC2)c2ccccc2n1	inactive
4. CC1CCCC[C@H]2C(=O)C=C[C@H](O)[C@@H]2CC(=O)O1 (stereo partly specified)	18.4 µM (active)
5. COc1cc2ncnc(Nc3ccc(F)c(Cl)c3)c2cc1O	inactive
6. C=CC(=O)Nc1cccc(Nc2nc(Nc3ccc(NC4CN(CCF)C4)cc3OC)ncc2C(F)(F)F)c1	13 µM (active)
7. C=C1CC2OC(=O)C(=C)C2C(OC(=O)/C(C)=C\C)CC2(C)OC1=CC2=O (stereo unspecified)	12.8 µM (active)
8. Cc1[nH]c2ccc(F)cc2c1-c1nc2c3cccnc3c3ncccc3c2[nH]1	14.6 µM (active)
9. CCOC(=O)c1cnc2ccc(-c3cncc(NS(=O)(=O)c4ccccc4)c3)cn12	1.16 µM (active)
10. CCN1C(C)(C)CC(Oc2ccc(C(=O)Nc3ccc(NC(=O)Nc4cc(C(C)(C)C)on4)cc3)nc2)CC1(C)C	inactive
11. C[C@H](Oc1cc(-n2cnc3ccc(CN4CCN(C)CC4)cc32)sc1C(N)=O)c1ccccc1C(F)(F)F	18.4 µM (active)
12. c1ccc(-c2ccc(CNc3nc(-c4ccccn4)nnc3-c3ccccc3)cc2)cc1	3.66 µM (active)
13. Cc1nc2ccc(-n3ncc(C(=O)c4cc5ccccc5[nH]4)c3N)cc2[nH]1	9.2 µM (active)
14. CCCCOC(=O)NS(=O)(=O)c1sc(CC(C)C)cc1-c1ccc(Cn2ccnc2)cc1	inactive
15. COc1ccccc1N1CCN(CC(C(=O)NC(C)(C)C)c2ccccc2)CC1 (stereo unspecified)	inactive
16. Cc1cc(C(=O)Cn2cc(C#N)ccc2=O)c(C)n1Cc1ccccc1	inactive
17. C[C@@]12C(=O)N(c3ccc(C(=O)Nc4cccc5cccnc45)cc3)C(=O)[C@@H]1[C@@H]1C=C[C@H]2C1	inactive
18. COc1cc(N(C)CCN(C)C)c(N)cc1Nc1nccc(-c2cn(C)c3ccccc23)n1	inactive
19. COc1ccc(Cl)c(Nc2ncnc3cc(OCC4CCN(C)CC4)c(OC)cc23)c1	7.31 µM (active)
20. CC(C)(O)c1ccc2c(c1)ncn2-c1cccc(-c2ccccc2C#N)c1	inactive
21. CC(C)(C)c1ccc2c(c1)CC[C@H]2NC(=O)Nc1cccc2[nH]ncc12	inactive
22. COc1ccccc1-c1ccc(-c2cn(C(=O)N3CCCCC3Cc3ccccc3)nn2)cc1 (stereo unspecified)	inactive
23. CCOC(=O)CCNc1cc(N2CCc3ccccc3CC2)nc(-c2cccnc2)n1	inactive
24. CC(=O)C1=C(O)C=C2Oc3c(C(C)=O)c(O)c(C)c(O)c3[C@]2(C)C1=O	inactive
25. Cc1nc2ccc(CN(C)c3ccc(C(=O)NC(CCC(=O)O)C(=O)O)s3)cc2c(=O)[nH]1 (stereo unspecified)	0.0651 µM (active)
26. COC1CC(O[C@H]2CC[C@]3(C)C4CC[C@@]5(C)C(=O)[C@]4(CC[C@@H]3C2)CC[C@@H]5C2=CC(=O)OC2)OC(C)C1OC1OC(COC2OC(CO)C(O)C(O)C2O)C(O)C(O)C1O (stereo partly specified)	inactive
27. Cc1cc(C(=O)Nc2cc(Nc3ccc4c(/C=C/c5ccccn5)n[nH]c4c3)ccc2F)n(C)n1	0.731 µM (active)
28. COc1nc2ccc(Br)cc2cc1[C@@H](c1ccccc1)[C@@](O)(CCN(C)C)c1cccc2ccccc12	18.4 µM (active)
29. O=C(NCCN1CCC(n2c(=O)[nH]c3ccccc32)CC1)c1cc2cc(F)ccc2[nH]1	inactive
30. C=C1C(=O)O[C@@H]2/C=C(\CO)CC/C=C(/C=O)C[C@@H](O)[C@@H]12	16.4 µM (active)
31. Cc1noc(C)c1-c1cc(O)cc(C(O)c2ccccc2)c1 (stereo unspecified)	10.3 µM (active)
32. COC(=O)c1cc2c(C(F)(F)F)cc(-c3ccccc3)cc2n1O	inactive
33. COc1cc2nc(N3CCN(C(=O)COc4c(OC)cccc4C(C)C)CC3)nc(N)c2cc1OC	inactive
34. CCNC(=O)c1noc(-c2cc(Cl)c(O)cc2O)c1-c1ccc(OC)cc1	0.92 µM (active)
35. C=C(NC(=O)C(=C)NC(=O)c1csc(C2=NC3c4csc(n4)C4NC(=O)c5csc(n5)C(C(C)(O)C(C)O)NC(=O)C5CSC(=N5)/C(=C/C)NC(=O)C(C(C)O)NC(=O)c5csc(n5)C3(CC2)NC(=O)C(C)NC(=O)C(=C)NC(=O)C(C)NC(=O)C(C(C)CC)NC2C=Cc3c(C(C)O)cc(nc3C2O)C(=O)OC4C)n1)C(N)=O (stereo unspecified)	4.61 µM (active)
36. COc1cc2c(cc1-c1c(C)noc1C)ncc1[nH]c(=O)n(C(C)c3ccccn3)c12 (stereo unspecified)	7.31 µM (active)
